Target: UniProt P23975
Sequence (P23975 whole entry): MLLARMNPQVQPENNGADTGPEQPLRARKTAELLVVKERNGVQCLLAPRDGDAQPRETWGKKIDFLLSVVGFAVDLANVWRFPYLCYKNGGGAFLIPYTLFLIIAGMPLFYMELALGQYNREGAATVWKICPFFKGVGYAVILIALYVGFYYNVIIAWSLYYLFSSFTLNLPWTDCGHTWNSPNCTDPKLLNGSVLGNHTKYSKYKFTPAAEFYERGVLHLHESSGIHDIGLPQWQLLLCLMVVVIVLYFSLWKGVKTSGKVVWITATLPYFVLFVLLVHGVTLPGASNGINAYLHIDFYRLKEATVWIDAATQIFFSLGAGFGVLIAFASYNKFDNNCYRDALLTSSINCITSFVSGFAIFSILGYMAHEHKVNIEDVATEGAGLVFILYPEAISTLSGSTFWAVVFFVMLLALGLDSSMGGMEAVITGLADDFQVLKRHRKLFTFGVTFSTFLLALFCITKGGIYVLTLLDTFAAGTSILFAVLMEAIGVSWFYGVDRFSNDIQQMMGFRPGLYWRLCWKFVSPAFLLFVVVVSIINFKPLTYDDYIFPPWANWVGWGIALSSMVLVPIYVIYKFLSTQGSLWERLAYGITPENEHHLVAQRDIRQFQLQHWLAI
Test: Off-target interaction determined by the PDSP
Format: binding
Conditions: read-out: Off-target, receptor (h, unless noted) (Ki, μM): NET
Assay Endpoint: Ki
Please answer using a numeric value trailed by its unit.

Documented Ki of OC[C@H]1O[C@@H](n2cnc3c(NC(C4CCC4)C4CCC4)ncnc32)[C@H](O)[C@@H]1O : 4.82 µM

---

Could you please report measured pKi for the items listed next?
Biological target: hA3AR (Homo sapiens)
Construct: expressed in transfected cells; host or cells: CHO
Sequence (P0DMS8 whole entry): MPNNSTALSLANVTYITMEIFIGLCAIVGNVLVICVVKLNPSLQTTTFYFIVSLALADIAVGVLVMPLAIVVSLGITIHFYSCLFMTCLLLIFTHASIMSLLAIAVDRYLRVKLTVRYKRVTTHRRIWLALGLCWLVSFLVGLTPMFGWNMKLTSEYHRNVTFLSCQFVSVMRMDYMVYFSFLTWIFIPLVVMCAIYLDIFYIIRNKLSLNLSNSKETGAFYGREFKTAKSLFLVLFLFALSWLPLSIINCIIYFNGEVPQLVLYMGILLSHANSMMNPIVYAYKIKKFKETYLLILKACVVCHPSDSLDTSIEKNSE
Experiment: Radioligand binding in membranes of CHO cells expressing hA3AR
Numbers only, as −log10 of the molar value.

                                   molecule  measured_value
0  OC[C@H]1O[C@@H](n2cnc3c(NC(C4CC4)C4CC4)ncnc32)[C@H](O)[C@@H]1O [Compound 8]            7.38

From here, focus on the item given below.
Documented pKi of O[C@@H]1[C@H](O)[C@@H](CCl)O[C@H]1n1cnc2c(NC3CC4CCC3C4)ncnc21 (some centres unmarked) [Compound 3, reference compound] : 6.04
